System: MYT1L
Test: 3' UTR reporter interaction score (median-centred robust z-score of log2 firefly/Renilla activity); higher = less repression of the 3' UTR reporter
Conditions: HEK293T; 48 h
3' UTR reporter interaction score of -0.2 or higher: label 1. Under -0.2: label 0.

Observe how each entry below is paired with its result.
>>> class_label("GACACGGGCGACAGCUGCGGCCC")
"label 0"
>>> class_label("AAGCAGCUGCCUCUGAGGC")
"label 0"
>>> class_label("UGUAAACAUCCUCGACUGGAAG")
"label 1"
>>> class_label("UGAGGUAGUAGUUUGUACAGU")
"label 1"
>>> class_label("CAGUGCAAUAGUAUUGUCAAAGC")
"label 0"
>>> class_label("UAAGUGCUUCCAUGUUUGAGUGU")
"label 0"
>>> class_label("GGCUGGCUCGCGAUGUCUGUUU")
"label 1"
>>> class_label("CAGUAACAAAGAUUCAUCCUUGU")
"label 0"

Check this sequence for 3' UTR reporter interaction score at or above -0.2: `AACCCGUAGAUCCGAUCUUGUG` label 1

Check this sequence for 3' UTR reporter interaction score at or above -0.2: `CCUCUGGGCCCUUCCUCCAG` label 0
